Target: human QRFP receptor (GPR103) (Homo sapiens, UniProt Q96P65)
Construct: membrane sample
Sequence (Q96P65 whole entry): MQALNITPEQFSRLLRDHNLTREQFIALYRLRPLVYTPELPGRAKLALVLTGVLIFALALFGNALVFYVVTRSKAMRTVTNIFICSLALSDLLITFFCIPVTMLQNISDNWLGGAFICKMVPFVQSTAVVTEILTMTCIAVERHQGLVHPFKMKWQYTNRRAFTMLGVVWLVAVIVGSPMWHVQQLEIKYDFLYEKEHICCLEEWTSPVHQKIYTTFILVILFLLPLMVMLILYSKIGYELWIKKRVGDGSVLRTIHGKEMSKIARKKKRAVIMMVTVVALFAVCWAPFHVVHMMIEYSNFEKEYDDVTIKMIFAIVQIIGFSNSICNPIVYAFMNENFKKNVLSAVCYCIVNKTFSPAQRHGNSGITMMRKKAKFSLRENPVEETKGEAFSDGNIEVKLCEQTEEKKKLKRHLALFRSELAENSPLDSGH
Assay: QRFP43-Binding Inhibitory Test
Conditions: inhibition of specific [125I] QRFP43 binding; membrane sample of CHO-K1 NFAT β-Lactamase cells expressing GPR103; 25° C., 1 hour
Description: A cDNA sequence [Accession No. NM_198179] coding for a human QRFP receptor (GPR103) was cloned in an expression vector pEF1V5-H isB (by Invitrogen). The resulting expression vector was transfected in a host cell CHO-K1 NFAT β-Lactamase (by Aurora), according to a cationic lipid process [see Proceedings of the National Academy of Sciences of the United States of America, Vol. 84, p. 7413, 1987], thereby producing a QRFP receptor (GPR103). […]

[
  {
    "COMPOUND": "CNCc1ccc2c(c1)CCN(C(=O)c1cc3ccccc3n1C)C2 [Example 5]",
    "UNIT DESCRIPTOR": "nM",
    "IC50": 19
  },
  {
    "COMPOUND": "Cn1c(C(=O)N2CCc3cc(CN4CCC4)ccc3C2)cc2ccccc21 [Example 6]",
    "UNIT DESCRIPTOR": "nM",
    "IC50": 43
  },
  {
    "COMPOUND": "Cn1c(C(=O)NCc2ccc3c(c2)CCNC3)cc2ccccc21 [Example 1]",
    "UNIT DESCRIPTOR": "nM",
    "IC50": 61
  },
  {
    "COMPOUND": "CCN1CCc2cc(CNC(=O)c3cc4ccccc4n3C)ccc2C1 [Example 2]",
    "UNIT DESCRIPTOR": "nM",
    "IC50": 49
  },
  {
    "COMPOUND": "CNCc1ccc2c(c1)CCN(C(=O)c1cc3cc(Cl)ccc3n1C)C2 [Example 8]",
    "UNIT DESCRIPTOR": "nM",
    "IC50": 25
  }
]

---

target: human QRFP receptor (GPR103) (Homo sapiens); construct: membrane sample; assay: QRFP43-Binding Inhibitory Test; conditions: inhibition of specific [125I] QRFP43 binding; membrane sample of CHO-K1 NFAT β-Lactamase cells expressing GPR103; 25° C., 1 hour

[
  {
    "SMILES STR": "Cn1c(C(=O)NCc2ccc3c(c2)CCN(C2CCCC2)C3)cc2ccccc21",
    "IC50 (nM)": 45
  },
  {
    "SMILES STR": "CN(C)Cc1ccc2c(c1)CCN(C(=O)c1cc3cc(Cl)ccc3n1C)C2",
    "IC50 (nM)": 6.1
  },
  {
    "SMILES STR": "CN(C)Cc1ccc2c(c1)CCN(C(=O)c1cc3ccccc3n1C)C2",
    "IC50 (nM)": 5.8
  }
]
